Source listed as paper PMC12567098.

subject_of_test: HER2 (Homo sapiens)
Sequence (P04626 23-1255): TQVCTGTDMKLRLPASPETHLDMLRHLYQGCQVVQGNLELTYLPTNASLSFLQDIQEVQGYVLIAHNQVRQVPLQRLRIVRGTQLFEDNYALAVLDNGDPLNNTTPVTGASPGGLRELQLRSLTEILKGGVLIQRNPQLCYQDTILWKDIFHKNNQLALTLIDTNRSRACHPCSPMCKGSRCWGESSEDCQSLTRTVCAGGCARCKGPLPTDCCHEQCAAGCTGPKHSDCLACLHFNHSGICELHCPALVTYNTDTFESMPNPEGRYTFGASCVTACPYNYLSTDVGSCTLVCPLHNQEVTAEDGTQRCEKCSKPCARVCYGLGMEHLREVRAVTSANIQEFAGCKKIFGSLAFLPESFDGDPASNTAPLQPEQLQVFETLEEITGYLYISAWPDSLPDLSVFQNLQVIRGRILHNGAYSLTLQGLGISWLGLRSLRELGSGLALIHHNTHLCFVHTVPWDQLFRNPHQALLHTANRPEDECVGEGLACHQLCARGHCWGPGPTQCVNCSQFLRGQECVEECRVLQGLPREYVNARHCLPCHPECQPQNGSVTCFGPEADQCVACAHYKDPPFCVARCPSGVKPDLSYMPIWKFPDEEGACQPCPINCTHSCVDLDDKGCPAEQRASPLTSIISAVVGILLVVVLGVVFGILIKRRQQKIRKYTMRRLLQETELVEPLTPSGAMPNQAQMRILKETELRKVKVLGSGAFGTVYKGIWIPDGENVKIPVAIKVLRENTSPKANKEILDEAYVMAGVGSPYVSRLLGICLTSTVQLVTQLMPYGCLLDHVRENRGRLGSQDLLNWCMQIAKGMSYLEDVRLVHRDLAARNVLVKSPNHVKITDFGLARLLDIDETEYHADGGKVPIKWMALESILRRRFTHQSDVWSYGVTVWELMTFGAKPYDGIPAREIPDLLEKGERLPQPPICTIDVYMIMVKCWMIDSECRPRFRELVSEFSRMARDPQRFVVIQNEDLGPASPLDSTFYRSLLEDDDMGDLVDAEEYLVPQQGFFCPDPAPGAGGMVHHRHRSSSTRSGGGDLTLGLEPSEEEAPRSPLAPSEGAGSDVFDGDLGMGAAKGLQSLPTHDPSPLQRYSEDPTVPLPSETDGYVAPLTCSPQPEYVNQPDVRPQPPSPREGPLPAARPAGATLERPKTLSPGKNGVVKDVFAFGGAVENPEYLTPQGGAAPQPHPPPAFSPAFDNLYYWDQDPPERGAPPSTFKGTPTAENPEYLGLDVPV

>  <compound_string>
O=C1Nc2ccc(F)cc2/C1=N/NC(=O)c1ccc(Nc2ncnc3ccccc23)cc1

>  <subject_of_test>
HER2 (Homo sapiens)

>  <IC50>
138 nM

$$$$

###

System: HeLa
protocol_notes: MTT cytotoxicity assay, HeLa
Assay type: cell-based
details: Homo sapiens, 48 h
pIC50: −log10 of the molar value.

>  <compound>
O=C1Nc2ccccc2/C1=N/NC(=O)c1ccc(Nc2ncnc3ccccc23)cc1 [Compound 6a]

>  <reading_qualifier>
=

>  <pIC50>
4.88

$$$$
>  <compound>
CCN(CC)CCNC(=O)c1c(C)[nH]c(/C=C2\C(=O)Nc3ccc(F)cc32)c1C [Sunitinib, reference compound]

>  <reading_qualifier>
=

>  <pIC50>
5.13

$$$$
>  <compound>
O=C1Nc2ccc(Cl)cc2/C1=N/NC(=O)c1ccc(Nc2ncnc3ccccc23)cc1 [Compound 6b]

>  <reading_qualifier>
=

>  <pIC50>
4.18

$$$$
>  <compound>
Cc1ccc2c(c1)/C(=N/NC(=O)c1ccc(Nc3ncnc4ccccc34)cc1)C(=O)N2 [Compound 6d]

>  <reading_qualifier>
<

>  <pIC50>
4.00

$$$$
>  <compound>
O=C1Nc2ccc(F)cc2/C1=N/NC(=O)c1ccc(Nc2ncnc3ccccc23)cc1 [Compound 6c]

>  <reading_qualifier>
=

>  <pIC50>
5.12

$$$$
